System: NCI-H226
PROTOCOL DETAILS: NCI tumour cell line growth inhibition, 48 h
Active and inactive are the calls of the source. No stated cut-off is given here; in the data, active = GI50 up to about 1.1 µM and inactive = higher.
Hi there, use one of these labels in your reply, thanks! Yes (active), No (inactive)

INPUT: Hi, do you know how CC1CC[C@]2(C(=O)O)CCC3(C)C(=CCC4[C@@]5(C)CC[C@H](OS(=O)(=O)c6ccccc6)C(C)(C)C5CC[C@]43C)[C@@H]2[C@H]1C (stereo not given in full) came out in this test?
OUTPUT: No

INPUT: Hi, do you know how O=C(O)c1cccc(S(=O)(=O)NN2C(=O)CSC2c2ccccc2Cl)c1 (stereo not given) came out in this test?
OUTPUT: No

INPUT: Hi, do you know how NC1=NC2(COC(c3ccccc3)(c3ccccc3)c3ccccc3)OC(COC(c3ccccc3)(c3ccccc3)c3ccccc3)C(O)C2O1 (stereo not given) came out in this test?
OUTPUT: No

INPUT: Hi, do you know how CCCCSC1=N/C(=C\c2ccccc2O)C(=O)N1 came out in this test?
OUTPUT: No

INPUT: Hi, do you know how COc1cc(O)c2c(=O)c(OC)c(-c3ccc4c(c3)OCO4)oc2c1 came out in this test?
OUTPUT: No

INPUT: Hi, do you know how OC1OCC(COc2cc(Cl)c(Cl)cc2Cl)OC1O (stereo not given) came out in this test?
OUTPUT: No

INPUT: Hi, do you know how Cc1n[nH]c(=S)n(C)c1=S came out in this test?
OUTPUT: No

INPUT: Hi, do you know how COc1ccc(/C=C2\SC(c3ccc(OC)cc3)N(NC(=O)Cc3ccccc3)C2=O)cc1 (stereo not given) came out in this test?
OUTPUT: No

INPUT: Hi, do you know how CN(C)/C=C/c1c2c(nc3ccccc13)C(=O)c1ccccc1C2=O came out in this test?
OUTPUT: No

INPUT: Hi, do you know how CCC1(O)C(=O)OCc2c1cc1n(c2=O)Cc2cc3ccc(C=O)cc3nc2-1 (stereo not given) came out in this test?
OUTPUT: No

INPUT: Hi, do you know how CC(=O)OC1OC2C(NC(=O)OC(C)(C)C)C1CC2(OCc1ccccc1)OCc1ccccc1 (stereo not given) came out in this test?
OUTPUT: No

INPUT: Hi, do you know how CCN(CC)c1ccc(C(=C2C=CC(=[N+](CC)CC)C=C2)c2ccccc2)cc1 came out in this test?
OUTPUT: Yes

INPUT: Hi, do you know how O=C1CC(c2cccc([N+](=O)[O-])c2)C2(C(=O)NC(=O)NC2=O)C(c2cccc([N+](=O)[O-])c2)C1 (stereo not given) came out in this test?
OUTPUT: No

INPUT: Hi, do you know how O=P(c1ccccc1)(c1ccccc1)C1CC=C2CCCCCC2C1 (stereo not given) came out in this test?
OUTPUT: No

INPUT: Hi, do you know how C=C1COC(O)(C2OCOC(C3CC(=O)NC(=O)C3)C2O)C1C (stereo not given) came out in this test?
OUTPUT: Yes

====

Test system: SK-MEL-5
PROTOCOL DETAILS: NCI tumour cell line growth inhibition, 48 h
Active and inactive are the calls of the source. No stated cut-off is given here; in the data, active = GI50 up to about 1.1 µM and inactive = higher.
Hi there, use one of these labels in your reply, thanks! active, inactive

INPUT: Hi, do you know how C[C@@]12C[C@@H](c3ccccc3O1)N1CCCSC1=N2 came out in this test?
OUTPUT: inactive

INPUT: Hi, do you know how COC1=CC(=O)c2c(c(O)c3oc4cc(OC)cc(C)c4c(=O)c3c2O)C1=O came out in this test?
OUTPUT: active

INPUT: Hi, do you know how COc1ccc(/C=C\c2cc(OC)c(OC)c(OC)c2)cc1 came out in this test?
OUTPUT: active

INPUT: Hi, do you know how CCO[C@@H]1C2C=CC(C2)[C@H]1[N+](=O)[O-] (some centres not stated) came out in this test?
OUTPUT: inactive

INPUT: Hi, do you know how C=CCSC1=N/C(=C\c2ccccc2)C(=O)N1CC=C came out in this test?
OUTPUT: inactive

INPUT: Hi, do you know how CC12CCC(C(=O)n3c1nc1ccccc13)C(C)(C)O2 (configuration not stated) came out in this test?
OUTPUT: inactive

INPUT: Hi, do you know how COc1ccc(/C=C2\c3cc(OC)c(OC)cc3CCN2C(=O)c2ccccc2)cc1OC came out in this test?
OUTPUT: inactive

INPUT: Hi, do you know how O=C1NC(c2ccccc2Cl)Nc2ccccc21 (configuration not stated) came out in this test?
OUTPUT: inactive

INPUT: Hi, do you know how Cc1ccc2oc3c(c(Br)c(Br)n3C)c(=O)c2c1 came out in this test?
OUTPUT: inactive

INPUT: Hi, do you know how Cc1cccc(N2C(=O)C3c4[nH]c5ccccc5c4C4CCC(C(C)(C)C)CC4C3C2=O)c1 (configuration not stated) came out in this test?
OUTPUT: inactive

INPUT: Hi, do you know how CC1(C)C(=O)C(=Cc2ccco2)C1=O came out in this test?
OUTPUT: inactive

INPUT: Hi, do you know how CN(C)c1n/c(=N/Cc2ccco2)ss1 came out in this test?
OUTPUT: inactive

INPUT: Hi, do you know how COc1cc(O)c2c(=O)c(OC)c(-c3ccc4c(c3)OCO4)oc2c1 came out in this test?
OUTPUT: inactive

INPUT: Hi, do you know how Cc1ccc(O)c(-c2cc(-c3cccc(Cl)c3)c(C#N)c(N)n2)c1 came out in this test?
OUTPUT: inactive

INPUT: Hi, do you know how c1cc(-c2cn[nH]c2)cc(-c2cn[nH]c2)c1 came out in this test?
OUTPUT: inactive

INPUT: Hi, do you know how CCN1C(=O)C(=C/C=C/c2ccc(OC)cc2)C(=O)N(CC)C1=S came out in this test?
OUTPUT: inactive

INPUT: Hi, do you know how COc1cc(CC2CCc3nc(N)nc(N)c3C2)cc(OC)c1OC (configuration not stated) came out in this test?
OUTPUT: active

INPUT: Hi, do you know how CN(C)CCCN1c2ccccc2CCc2cc([N+](=O)[O-])ccc21 came out in this test?
OUTPUT: inactive

INPUT: Hi, do you know how OC1OCC(COc2cc(Cl)c(Cl)cc2Cl)OC1O (configuration not stated) came out in this test?
OUTPUT: inactive

INPUT: Hi, do you know how N#C/C(c1nc2ccccc2[nH]1)=c1\s/c(=C/c2ccc(Cl)cc2)c(=O)n1-c1ccccc1 came out in this test?
OUTPUT: inactive

INPUT: Hi, do you know how Cn1c2ccccc2n2c(N=O)c(-c3ccccc3)nc12 came out in this test?
OUTPUT: inactive

INPUT: Hi, do you know how O=C(CC1=Nc2nnc(-c3nnc4n3C(=O)C(CC(=O)c3cccnc3)=N4)n2C1=O)c1cccnc1 came out in this test?
OUTPUT: inactive

INPUT: Hi, do you know how CN1C(=O)c2c(c3c4ccccc4n(C4OC(CO)C(O)C(O)C4O)c3c3[nH]c4ccccc4c23)C1=O (configuration not stated) came out in this test?
OUTPUT: inactive

INPUT: Hi, do you know how c1ccc2c3nc(C4CCCC4)nc-3c(NC3CCCC3)[nH]c2c1 came out in this test?
OUTPUT: inactive

INPUT: Hi, do you know how CCCNC1=Nc2ccccc2[C@@H]2N(C)c3ccccc3C(C)C[C@]12C (some centres not stated) came out in this test?
OUTPUT: inactive

INPUT: Hi, do you know how C[Si](C)(C)C1=C([Si](C)(C)C)C(Cl)(Cl)C1=O came out in this test?
OUTPUT: inactive

INPUT: Hi, do you know how O=c1c2cc(Cl)ccc2n2nnc3ccc(NCCNCCO)c1c32 came out in this test?
OUTPUT: inactive

INPUT: Hi, do you know how CCOc1ccc2c(c1)[n+]([O-])c(-c1ccc(Cl)cc1)c(N)[n+]2[O-] came out in this test?
OUTPUT: inactive

INPUT: Hi, do you know how CN(C)C(=S)N/N=C(\C(=N/NC(=S)N(C)C)c1ccccn1)c1ccccn1 came out in this test?
OUTPUT: inactive

INPUT: Hi, do you know how COc1cc(C/N=c2/nc(N(C)C)ss2)cc(OC)c1OC came out in this test?
OUTPUT: inactive

INPUT: Hi, do you know how COC(=O)C1=CC(=O)OC1(OO)c1ccccc1 (configuration not stated) came out in this test?
OUTPUT: inactive

INPUT: Hi, do you know how CN(C)CCC(/C=C/c1ccccc1)=N\Nc1ccc(Cl)cc1Cl came out in this test?
OUTPUT: inactive

INPUT: Hi, do you know how O=C1C(Cl)=C(N2CCN(c3ncccn3)CC2)C(=O)c2c(O)ccc(O)c21 came out in this test?
OUTPUT: inactive

INPUT: Hi, do you know how COC1CCC(OC2CC(C3(C)CCC4(CC(O)C(C)C(C(C)/C=C(\C)C(=O)C(C)CC(C)C(=O)O)O4)O3)OC3(OC(C4OC(O)(CO)C(C)CC4C)CC3C)C2C)OC1C (configuration not stated) came out in this test?
OUTPUT: active

INPUT: Hi, do you know how CCC(=O)OC1CCn2c1nc1c2C(=O)C(C)=C(N2CC2)C1=O (configuration not stated) came out in this test?
OUTPUT: active

INPUT: Hi, do you know how O=C1CC(c2cccc([N+](=O)[O-])c2)C2(C(=O)NC(=O)NC2=O)C(c2cccc([N+](=O)[O-])c2)C1 (configuration not stated) came out in this test?
OUTPUT: inactive

INPUT: Hi, do you know how CCOC(=O)/C(C)=C\[C@@]1(C)O[C@@H](C)[C@@](C)(OC(C)=O)[C@@H]1OC(C)=O came out in this test?
OUTPUT: inactive

INPUT: Hi, do you know how N#Cc1c2ccccc2c(Cc2ccc3c(c2)OCCOCCOCCOCCOCCO3)c2ccccc12 came out in this test?
OUTPUT: inactive

INPUT: Hi, do you know how CC(C)(CN1CCCCC1)C(=O)/C=C/c1ccc(/C=C/C(=O)C(C)(C)CN2CCCCC2)cc1 came out in this test?
OUTPUT: active

INPUT: Hi, do you know how CCN(CC)c1ccc(/C=c2\nc(-c3ccccc3)n3c2nc2ccccc23)cc1 came out in this test?
OUTPUT: inactive

INPUT: Hi, do you know how COc1ccc(C2=Nn3c(nc4sc5c(c4c3=O)CCCC5)SC2)cc1 came out in this test?
OUTPUT: inactive

INPUT: Hi, do you know how FC(F)(F)c1ccc(C2SCc3nc4ccccc4n32)cc1 (configuration not stated) came out in this test?
OUTPUT: inactive
